Every entry's value here was drawn from the NIST ThermoML archive (doi:10.1016/j.tca.2011.01.019).

Details: 323.15 K; 101 kPa; Liquid; Linear variable-path acoustic interferometer

compound	speed of sound (m/s)
Cc1ccccc1N	1501
CC(C)OC(C)C	889
Cc1cccc(N)c1	1492
C1CCOC1 [tetrahydrofuran]	1165

---

Settings: 303.15 K; 101 kPa; Liquid; Linear variable-path acoustic interferometer
quantity_kind: speed of sound (m/s)

compound	unit	assay_result
C1CCOC1 [tetrahydrofuran]	m/s	1254
Cc1ccccc1N	m/s	1579
CC(C)OC(C)C	m/s	976
Cc1cccc(N)c1	m/s	1567

---

The following molecules are shown together with reported mass density values.
Settings: 303.15 K; 101 kPa; Liquid; Pycnometric method

molecule	mass density, kg/m3
Cc1cccc(N)c1	980.8
C1CCOC1 [tetrahydrofuran]	876.9
CC(C)OC(C)C	712.9
Cc1ccccc1N	990.1
